Entries and their Ki
Biological target: UniProt P50406
Experiment: radioligand binding assay (SPA format), [N-methyl-3H]-LSD
Details: read-out: human 5HT6 Ki; human 5-HT6 receptor membranes, 10 nM [3H]-LSD
Structures can show the parent of a compound that is named as a salt.
observable: Ki (nM)

molecule: Cn1c2c(c3cc(S(=O)(=O)c4ccnc5ccccc45)ccc31)C1CCC(C2)N1 (stereo not drawn)
experimental.system: UniProt P50406
observable: Ki
number: 39
//
molecule: COCCN1C2CCC1c1c(n(C)c3ccc(S(=O)(=O)c4ccc5[nH]ccc5c4)cc13)C2 (stereo not drawn)
experimental.system: UniProt P50406
observable: Ki
number: 1.4
//
molecule: Cn1c2c(c3cc(S(=O)(=O)c4ccccc4)cc(N4CCCC4)c31)C1CCC(C2)N1 (stereo not drawn)
experimental.system: UniProt P50406
observable: Ki
number: 52
//
molecule: Cc1cc(S(=O)(=O)c2cccc(C(F)(F)F)c2)cc2c3c(n(C)c12)CC1CCC3N1.Cl (stereo not drawn) [Example 75, hydrochloride]
experimental.system: UniProt P50406
observable: Ki
number: 3.6
//
molecule: Cl.O=S(=O)(c1ccccc1)c1ccc2c(c1)c1c(n2-c2ccccc2)CC2CCC1N2 (stereo not drawn) [Example 88, hydrochloride]
experimental.system: UniProt P50406
observable: Ki
number: 350
//
molecule: Cn1c2c(c3cc(S(=O)(=O)c4ccc(CN)cc4)ccc31)C1CCC(C2)N1 (stereo not drawn) [Example 33, dihydrochloride]
experimental.system: UniProt P50406
observable: Ki
number: 15
//
molecule: Cn1c2c(c3cc(S(=O)(=O)c4ccccc4F)ccc31)C1CCC(C2)N1 (stereo not drawn)
experimental.system: UniProt P50406
observable: Ki
number: 4.6
//
molecule: COc1cc(S(=O)(=O)c2cccc(-n3cccn3)c2)cc2c3c(n(C)c12)CC1CCC3N1 (stereo not drawn) [Example 247]
experimental.system: UniProt P50406
observable: Ki
number: 1.5
//
molecule: Cn1c2c(c3cc(S(=O)(=O)c4cccc5cccnc45)ccc31)C1CCC(C2)N1 (stereo not drawn) [Example 170]
experimental.system: UniProt P50406
observable: Ki
number: 17
//
molecule: Cl.Cn1c2c(c3cc(S(=O)(=O)c4cncc(F)c4)ccc31)C1CCC(C2)N1 (stereo not drawn) [Example 59, hydrochloride]
experimental.system: UniProt P50406
observable: Ki
number: 139
//
molecule: Cl.Cn1c2c(c3cc(S(=O)(=O)c4cccnc4)ccc31)C1CCC(C2)N1 (stereo not drawn) [Example 61, hydrochloride]
experimental.system: UniProt P50406
observable: Ki
number: 156
//
molecule: CCn1c2c(c3cc(S(=O)(=O)c4ccccc4)ccc31)C1CCC(C2)N1.Cl (stereo not drawn) [Example 90, hydrochloride]
experimental.system: UniProt P50406
observable: Ki
number: 52

---

Molecular target: human 5-HT6 receptor (Homo sapiens (Human))
Sequence (P50406 whole entry): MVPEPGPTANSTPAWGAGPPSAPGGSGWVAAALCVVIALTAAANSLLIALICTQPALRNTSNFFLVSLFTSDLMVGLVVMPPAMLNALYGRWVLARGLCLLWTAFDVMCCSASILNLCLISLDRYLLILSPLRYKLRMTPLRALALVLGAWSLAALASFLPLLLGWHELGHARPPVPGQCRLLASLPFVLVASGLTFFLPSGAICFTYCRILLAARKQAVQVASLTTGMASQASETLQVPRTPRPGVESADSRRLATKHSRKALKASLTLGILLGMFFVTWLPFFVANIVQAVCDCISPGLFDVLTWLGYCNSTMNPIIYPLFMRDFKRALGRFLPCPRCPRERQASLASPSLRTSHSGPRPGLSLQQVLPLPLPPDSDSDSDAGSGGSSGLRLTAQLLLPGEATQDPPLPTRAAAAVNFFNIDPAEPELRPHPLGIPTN
Experiment: radioligand binding assay (SPA format), [N-methyl-3H]-LSD
Settings: read-out: human 5HT6 Ki; human 5-HT6 receptor membranes, 10 nM [3H]-LSD
Counter-ions that a name gives are not always drawn.
Entries and their log10(Ki)
observable: log10(Ki) (log10 of the value in nM)

molecule: CCc1cc(S(=O)(=O)c2ccccc2)cc2c3c(n(C)c12)CC1CCC3N1 (centres unmarked) [Example 80, hydrochloride]
log10(Ki): 1.23
--
molecule: Cl.Cn1c2c(c3cc(S(=O)(=O)c4ccccc4)cc(OCc4ccccc4)c31)C1CCC(C2)N1 (centres unmarked) [Example 86, hydrochloride]
log10(Ki): 1.15
--
molecule: Cc1cc(S(=O)(=O)c2cncnc2)cc2c3c(n(C)c12)CC1CCC3N1.Cl (centres unmarked) [Example 78]
log10(Ki): 2.90
--
molecule: Cn1c2c(c3cc(S(=O)(=O)c4cc(C(F)(F)F)c5[nH]ccc5c4)ccc31)C1CCC(C2)N1 (centres unmarked) [Example 123]
log10(Ki): -0.33
--
molecule: Cl.Cn1c2c(c3cc(S(=O)(=O)c4cc(F)cc(F)c4)ccc31)C1CCC(C2)N1 (centres unmarked) [Example 55, hydrochloride]
log10(Ki): 0.93
--
molecule: COc1cc(S(=O)(=O)c2ccc3[nH]ccc3c2)cc2c3c(n(C)c12)CC1CCC3N1 (centres unmarked) [Example 145]
log10(Ki): -0.51
--
molecule: Cn1c2c(c3cc(S(=O)(=O)n4ccc5ncccc54)ccc31)C1CCC(C2)N1 (centres unmarked) [Example 107]
log10(Ki): 1.89
--
molecule: COc1cc(S(=O)(=O)c2cccc(Cl)c2)cc2c3c(n(C)c12)CC1CCC3N1C (centres unmarked) [Example 226]
log10(Ki): 0.00
--
molecule: Cl.Cn1c2c(c3cc(S(=O)(=O)c4ccc(F)cc4)ccc31)C1CCC(C2)N1 (centres unmarked) [Example 28, hydrochloride]
log10(Ki): 1.78
--
molecule: Cl.Cn1c2c(c3cc(S(=O)(=O)c4ccc(O)cc4)ccc31)C1CCC(C2)N1 (centres unmarked) [Example 32, hydrochloride]
log10(Ki): 1.04
--
molecule: CC(C)n1c2c(c3cc(S(=O)(=O)c4ccccc4)ccc31)C1CCC(C2)N1 (centres unmarked) [Example 181]
log10(Ki): 2.45
--
molecule: Cn1c2c(c3cc(S(=O)(=O)c4cc(F)ccn4)ccc31)C1CCC(C2)N1 (centres unmarked) [Example 96]
log10(Ki): 2.53
--
molecule: Cn1cc(S(=O)(=O)c2ccc3c(c2)c2c(n3C)CC3CCC2N3)c2ccccc21 (centres unmarked) [Example 165]
log10(Ki): -0.09
--
molecule: COc1cc(S(=O)(=O)n2ncc3ccccc32)cc2c3c(n(C)c12)CC1CCC3N1 (centres unmarked) [Example 148]
log10(Ki): 0.11
--
molecule: CC(C)Nc1cccc(S(=O)(=O)c2ccc3c(c2)c2c(n3C)CC3CCC2N3)c1.Cl (centres unmarked) [Example 47, hydrochloride]
log10(Ki): 1.04
--
molecule: Cn1c2c(c3cc(S(=O)(=O)c4cccc5ncccc45)ccc31)C1CCC(C2)N1 (centres unmarked) [Example 110]
log10(Ki): 2.17
--
molecule: Cn1c2c(c3cc(S(=O)(=O)c4csc5ccccc45)cc(F)c31)C1CCC(C2)N1 (centres unmarked) [Example 139]
log10(Ki): -0.33
--
molecule: Cc1cn(S(=O)(=O)c2ccc3c(c2)c2c(n3C)CC3CCC2N3)c2ccccc12 (centres unmarked) [Example 202]
log10(Ki): -0.14
--
molecule: Cn1cc(S(=O)(=O)c2ccc3c(c2)c2c(n3C)CC3CCC2N3)c2ccccc21 (centres unmarked) [Example 166]
log10(Ki): -0.39
--
molecule: Cn1c2c(c3cc(S(=O)(=O)c4ccc5cc[nH]c5c4)ccc31)C1CCC(C2)N1 (centres unmarked) [Example 95]
log10(Ki): 0.76
